These measurements were taken from the supplement of paper PMC6555819.

// reported PBM binding z-score for each item listed
- Test system: PPARg:RXRa DBDmut IVT, anti-RXR (DBD mutation: RXRa K156A/R161A, NR concentration 270 nM, RXRa partner concentration 90 nM)
- ASSAY_SUMMARY: PBM binding z-score (relative to random genomic background probes); higher = stronger binding; sequences stand for … in GC…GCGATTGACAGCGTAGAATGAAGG
METRIC: PBM binding z-score

1) AGAATGAGGTTATTAAGATCGGGGAATTGCGGTC 2.65
2) AGTCAAAGTCCACTAGGTAACGTAAGATTCAGCT 1.22
3) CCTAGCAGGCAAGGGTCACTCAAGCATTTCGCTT 0.337
4) TAGCCTAGGTCATTGGGCCAGTACAGTACGCATC 2.86
5) GCTCGGAGGGCAAGGTCAGAGCTTTGTCCGTAGA 0.731
6) TAGCCTAAGTCATTCAGGGGCCAGTATAGAAAGC -0.155
